# Measured On: full-length beta-Catenin (Uniprot ID P35222) (Homo sapiens, UniProt P35222)
# Construct: 10 nM full-length beta-Catenin (Uniprot ID P35222)
# Sequence (P35222 whole entry): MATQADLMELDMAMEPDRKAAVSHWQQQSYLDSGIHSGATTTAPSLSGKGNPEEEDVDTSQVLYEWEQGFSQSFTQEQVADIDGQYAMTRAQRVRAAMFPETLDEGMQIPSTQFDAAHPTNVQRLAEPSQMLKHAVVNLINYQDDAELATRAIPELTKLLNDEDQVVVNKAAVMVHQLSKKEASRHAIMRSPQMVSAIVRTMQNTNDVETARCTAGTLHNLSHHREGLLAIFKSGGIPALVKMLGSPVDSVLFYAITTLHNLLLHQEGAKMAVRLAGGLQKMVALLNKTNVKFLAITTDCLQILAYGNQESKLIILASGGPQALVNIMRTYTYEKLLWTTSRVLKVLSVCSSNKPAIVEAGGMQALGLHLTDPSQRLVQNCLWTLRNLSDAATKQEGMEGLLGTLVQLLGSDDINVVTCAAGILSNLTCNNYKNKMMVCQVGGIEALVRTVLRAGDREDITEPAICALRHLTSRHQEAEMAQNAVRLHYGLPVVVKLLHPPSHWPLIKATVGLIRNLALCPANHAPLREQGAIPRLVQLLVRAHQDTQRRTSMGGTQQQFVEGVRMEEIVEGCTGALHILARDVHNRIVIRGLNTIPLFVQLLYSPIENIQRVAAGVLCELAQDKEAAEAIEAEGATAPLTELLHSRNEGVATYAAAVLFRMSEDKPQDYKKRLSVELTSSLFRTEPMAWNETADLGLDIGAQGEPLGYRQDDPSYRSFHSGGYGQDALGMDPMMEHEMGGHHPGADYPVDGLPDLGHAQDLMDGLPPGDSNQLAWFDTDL
# Protocol Notes: Fluorescence polarization IC50 (beta-catenin / 5FAM-TCF4 10-53 competition)
# Assay type: binding
# Conditions Used: read-out: beta-Catenin FP IC50
Reported IC50 is given for each of the following compounds.
Response body: numeric value in nM, unit text excluded.

CC(=O)N1CCC[C@]12CC=CCCCC1(CCCC=CCCCOC(=O)N3CC[C@@](C(=O)N[C@@H](Cc4ccsc4)C(=O)N[C@@H](Cc4csc5ccccc45)C(=O)N[C@@H](CCC(N)=O)C(N)=O)(C3)NC(=O)[C@H](CC(N)=O)NC(=O)[C@H](Cc3ccccc3)NC(=O)[C@H](CCCCNC(=O)C(C)(c3ccccc3)c3ccccc3)NC(=O)[C@H](C)NC(=O)[C@H](CC(=O)O)NC(=O)[C@H](CC(=O)O)NC1=O)NC(=O)[C@H](CC(C)(C)C)NC(=O)[C@H](CC(=O)O)NC2=O (some centres unmarked) = 32

Turning now to a further compound:
Input CC(=O)N1CCC[C@]12CC=CCCCC1(CCCC=CCCCOC(=O)N3CC[C@@](C(=O)N[C@@H](Cc4ccccc4Cl)C(=O)N[C@@H](Cc4csc5ccccc45)C(=O)N[C@@H](CCC(N)=O)C(N)=O)(C3)NC(=O)[C@H](CC(C)C)NC(=O)[C@H](Cc3ccc(C(F)(F)F)cc3)NC(=O)[C@H](C)NC(=O)[C@H](C)NC(=O)[C@H](CC(=O)O)NC(=O)[C@H](CC(=O)O)NC1=O)NC(=O)[C@H](CC(C)(C)C)NC(=O)[C@H](CC(=O)O)NC2=O (some centres unmarked) . Output IC50: 64
